System: Protein cereblon/GTPase KRas (Homo sapiens), P01116+Q96SW2 [G12D]
Sequence (P01116 whole entry G12D): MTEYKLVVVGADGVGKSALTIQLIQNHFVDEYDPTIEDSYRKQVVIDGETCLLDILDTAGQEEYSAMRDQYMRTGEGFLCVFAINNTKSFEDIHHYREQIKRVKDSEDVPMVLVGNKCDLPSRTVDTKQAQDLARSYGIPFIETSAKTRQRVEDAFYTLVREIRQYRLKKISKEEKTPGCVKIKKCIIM
Sequence (Q96SW2 whole entry partner): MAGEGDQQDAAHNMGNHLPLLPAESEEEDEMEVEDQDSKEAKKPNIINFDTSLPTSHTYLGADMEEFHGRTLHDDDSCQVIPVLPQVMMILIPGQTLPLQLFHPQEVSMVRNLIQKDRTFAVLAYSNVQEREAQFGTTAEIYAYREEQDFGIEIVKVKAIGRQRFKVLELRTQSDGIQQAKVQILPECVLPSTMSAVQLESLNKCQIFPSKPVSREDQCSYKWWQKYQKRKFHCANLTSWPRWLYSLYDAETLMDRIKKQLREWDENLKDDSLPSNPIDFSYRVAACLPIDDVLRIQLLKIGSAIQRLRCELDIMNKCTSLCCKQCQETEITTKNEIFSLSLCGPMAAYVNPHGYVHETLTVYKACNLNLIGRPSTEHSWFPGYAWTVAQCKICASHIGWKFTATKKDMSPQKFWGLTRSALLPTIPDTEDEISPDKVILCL
assay.text: PROTAC activity at CRBN/KRAS G12D mutant in human ASPC1 cells assessed as induction of KRAS G12D mutant degradation at 50 nM measured after 24 hrs by immunoblot analysis relative to control
Assay type: cell-based
measured.endpoint: Activity (%)
A number alone suffices; assume %.

Given C#Cc1c(F)ccc2cc(O)cc(-c3ncc4c(N5CC6CCC(C5)N6)nc(OCC5(CN6CCC7(CC6)CC(N6CCN(c8ccc9c(c8)C(=O)N(C8CCC(=O)NC8=O)C9=O)CC6)C7)CC5)nc4c3F)c12 (stereo not given) , respond with its Activity.
64

Given C#Cc1c(F)ccc2cc(O)cc(-c3ncc4c(N5CC6CCC(C5)N6)nc(OCC5(CN6CCC7(CC6)CC(N6CCC(c8cccc9c8C(=O)N(C8CCC(=O)NC8=O)C9=O)CC6)C7)CC5)nc4c3F)c12 (stereo not given) , respond with its Activity.
-12

Given C#Cc1c(F)ccc2cc(O)cc(-c3ncc4c(N5CC6CCC(C5)N6)nc(OCC5(CN6CCC7(CC6)CCN(c6ccc8c(c6)C(=O)N(C6CCC(=O)NC6=O)C8=O)CC7)CC5)nc4c3F)c12 (stereo not given) , respond with its Activity.
57

Given C#Cc1c(F)ccc2cc(O)cc(-c3ncc4c(N5CC6CCC(C5)N6)nc(OCC5(CN6CCC7(CC6)CC(N6CCC(c8cccc(N9CCC(=O)NC9=O)c8)CC6)C7)CC5)nc4c3F)c12 , respond with its Activity.
-10

Given C#Cc1c(F)ccc2cc(O)cc(-c3ncc4c(N5CC6CCC(C5)N6)nc(OCC5(CN6CCC7(CC6)CC(N6CCN(c8ccc(NC9%10CC(C9)C(=O)NC%10=O)cc8F)CC6)C7)CC5)nc4c3F)c12 , respond with its Activity.
67

* * *

Tested on: Protein cereblon/GTPase KRas (Homo sapiens), P01116+Q96SW2 [G12D]
assay.text: PROTAC activity at CRBN/KRAS G12D mutant in human ASPC1 cells assessed as induction of KRAS G12D mutant degradation at 5 nM measured after 24 hrs by immunoblot analysis relative to control
Format: cell-based
Would you mind telling me the reported Activity of each entry?
A number alone suffices; assume %.

Given C#Cc1c(F)ccc2cc(O)cc(-c3ncc4c(N5CC6CCC(C5)N6)nc(OCC5(CN6CCC7(CC6)CC(N6CCN(c8ccc(N9CCC(=O)NC9=O)cc8)CC6)C7)CC5)nc4c3F)c12 , respond with its Activity.
6

Given C#Cc1c(F)ccc2cc(O)cc(-c3ncc4c(N5CC6CCC(C5)N6)nc(OCC5(CN6CCC7(CC6)CC(N6CCC(c8cc9c(cc8F)c(N8CCC(=O)NC8=O)nn9C)CC6)C7)CC5)nc4c3F)c12 , respond with its Activity.
92

Given C#Cc1c(F)ccc2cc(O)cc(-c3ncc4c(N5CC6CCC(C5)N6)nc(OCC5(CN6CCC7(CC6)CC(N6CCC(c8ccc9c(c8)C(=O)N(C8CCC(=O)NC8=O)C9=O)CC6)C7)CC5)nc4c3F)c12 (configuration not stated) , respond with its Activity.
37

Given C#Cc1c(F)ccc2cc(O)cc(-c3ncc4c(N5CC6CCC(C5)N6)nc(OCC5(CN6CCC7(CC6)CC(N6CCN(c8ccc(NC9CCC(=O)NC9=O)cc8F)CC6)C7)CC5)nc4c3F)c12 (configuration not stated) , respond with its Activity.
54

Given C#Cc1c(F)ccc2cc(O)cc(-c3ncc4c(N5CC6CCC(C5)N6)nc(OCC5(CN6CCC7(CC6)CC(N6CCC(c8ccc(NC9CCC(=O)NC9=O)cc8F)CC6)C7)CC5)nc4c3F)c12 (configuration not stated) , respond with its Activity.
84

Given C#Cc1c(F)ccc2cc(O)cc(-c3ncc4c(N5CC6CCC(C5)N6)nc(OCC5(CN6CCC7(CC6)CC(N6CCC(c8cccc(C9CCC(=O)NC9=O)c8)CC6)C7)CC5)nc4c3F)c12 (configuration not stated) , respond with its Activity.
-8

Given C#Cc1c(F)ccc2cc(O)cc(-c3ncc4c(N5CC6CCC(C5)N6)nc(OCC5(CN6CCC7(CC6)CC(N6CCC(c8cccc9c8C(=O)N(C8CCC(=O)NC8=O)C9=O)CC6)C7)CC5)nc4c3F)c12 (configuration not stated) , respond with its Activity.
-3

* * *

assay.text: Volume of distribution at steady state in male Sprague-Dawley rat at 1 mg/kg, iv measured up to 24 hrs by LC-MS/MS analysis
Type: ADME, organism-based
condition.context: in vivo, read-out: Vdss
measured.endpoint: Vd (L/kg)
A number alone suffices; assume L/kg.

Given C#Cc1c(F)ccc2cc(O)cc(-c3ncc4c(N5CC6CCC(C5)N6)nc(OCC5(CN6CCC7(CC6)CC(N6CCC(c8cc9c(cc8F)c(N8CCC(=O)NC8=O)nn9C)CC6)C7)CC5)nc4c3F)c12 , respond with its Vd.
10.3

* * *

assay.text: Drug concentration in male Balb/c nude mouse tumor xenografted with human GP2d cells at 10 mg/kg, iv administered as single dose measured after 7 days by LC-MS/MS analysis
Format: ADME, organism-based, Neoplasm
condition.context: time 7 day, read-out: Ct
measured.endpoint: concentration at 168 h (ng/g)
A number alone suffices; assume ng/g.

Given C#Cc1c(F)ccc2cc(O)cc(-c3ncc4c(N5CC6CCC(C5)N6)nc(OCC5(CN6CCC7(CC6)CC(N6CCC(c8cc9c(cc8F)c(N8CCC(=O)NC8=O)nn9C)CC6)C7)CC5)nc4c3F)c12 , respond with its concentration at 168 h.
840

* * *

assay.text: Metabolic stability in rat liver microsomes assessed as intrinsic clearance at 1 uM preincubated for 3 mins with NADPH and measured up to 60 mins by LC-MS/MS analysis
Type: ADME, Microsome
condition.context: time < 63 min, read-out: CLH
measured.endpoint: CLint scaled at 1 µM (mL/min/kg)
A number alone suffices; assume mL/min/kg.

Given C#Cc1c(F)ccc2cc(O)cc(-c3ncc4c(N5CC6CCC(C5)N6)nc(OCC5(CN6CCC7(CC6)CC(N6CCC(c8cc9c(cc8F)c(N8CCC(=O)NC8=O)nn9C)CC6)C7)CC5)nc4c3F)c12 , respond with its CLint scaled at 1 µM.
16.6

* * *

assay.text: Drug concentration in male Balb/c nude mouse tumor xenografted with human PK-59 cells at 10 mg/kg, iv administered as single dose measured after 6 hrs by LC-MS/MS analysis
Type: ADME, organism-based, Neoplasm
condition.context: read-out: Ct
measured.endpoint: concentration at 6 h (ng/g)
A number alone suffices; assume ng/g.

Given C#Cc1c(F)ccc2cc(O)cc(-c3ncc4c(N5CC6CCC(C5)N6)nc(OCC5(CN6CCC7(CC6)CC(N6CCC(c8cc9c(cc8F)c(N8CCC(=O)NC8=O)nn9C)CC6)C7)CC5)nc4c3F)c12 , respond with its concentration at 6 h.
1040

* * *

assay.text: Half life in male ICR mouse at 1 mg/kg, iv measured up to 24 hrs by LC-MS/MS analysis
Assay type: ADME, organism-based
condition.context: in vivo
measured.endpoint: half-life
Report field: quantity (unit follows the number).

Given C#Cc1c(F)ccc2cc(O)cc(-c3ncc4c(N5CC6CCC(C5)N6)nc(OCC5(CN6CCC7(CC6)CC(N6CCC(c8cc9c(cc8F)c(N8CCC(=O)NC8=O)nn9C)CC6)C7)CC5)nc4c3F)c12 , respond with its half-life.
529 min

* * *

assay.text: AUC (0 to t) in male Sprague-Dawley rat at 1 mg/kg, iv measured up to 24 hrs by LC-MS/MS analysis
Assay type: ADME, organism-based
condition.context: in vivo
measured.endpoint: AUC(0-t) at 24 h

Given C#Cc1c(F)ccc2cc(O)cc(-c3ncc4c(N5CC6CCC(C5)N6)nc(OCC5(CN6CCC7(CC6)CC(N6CCC(c8cc9c(cc8F)c(N8CCC(=O)NC8=O)nn9C)CC6)C7)CC5)nc4c3F)c12 , respond with its AUC(0-t) at 24 h.
0.531 µM·h

* * *

assay.text: Clearance in male cynomolgus monkey at 1 mg/kg, iv measured up to 24 hrs by LC-MS/MS analysis
Format: ADME, organism-based, Macaca fascicularis
condition.context: in vivo
measured.endpoint: clearance (mL/min/kg)
A number alone suffices; assume mL/min/kg.

Given C#Cc1c(F)ccc2cc(O)cc(-c3ncc4c(N5CC6CCC(C5)N6)nc(OCC5(CN6CCC7(CC6)CC(N6CCC(c8cc9c(cc8F)c(N8CCC(=O)NC8=O)nn9C)CC6)C7)CC5)nc4c3F)c12 , respond with its clearance.
19.5

* * *

assay.text: Stability in monkey plasma assessed as half life at 1 uM measured up to 120 mins by LC-MS/MS analysis
Type: ADME, cell-free, Macaca mulatta
condition.context: rhesus monkey
measured.endpoint: half-life at 1 µM (h)
A number alone suffices; assume h.

Given C#Cc1c(F)ccc2cc(O)cc(-c3ncc4c(N5CC6CCC(C5)N6)nc(OCC5(CN6CCC7(CC6)CC(N6CCC(c8cc9c(cc8F)c(N8CCC(=O)NC8=O)nn9C)CC6)C7)CC5)nc4c3F)c12 , respond with its half-life at 1 µM.
12.8
